Below: a set of entries, each annotated with reported pIC50.
# measurement description: Inhibition of human Biotinylated Fg binding to immobilized Alpha II biotinylated Fg beta-5
pIC50: −log10 of the molar value.
measure name: pIC50

COc1ncc(C(CC(=O)O)CC2CCN(C(=O)CCc3ccc4c(n3)NCCC4)CC2)c(OC)n1 (centres undefined) :: 8.34
O=C(O)CC(CC1CCN(C(=O)CCc2ccc3c(n2)NCCC3)CC1)c1cccnc1 (centres undefined) :: 8.77
O=C(O)CC(CCC1CCN(C(=O)Cc2ccc3c(n2)NCCC3)CC1)c1ccc2c(c1)OCO2 (centres undefined) :: 6.39
O=C(O)CC(CC1CCN(C(=O)CCc2ccc3c(n2)NCCC3)CC1)c1cccc(F)c1 (centres undefined) :: 8.55

---

# target: Integrin alpha-IIb/beta-3 (Homo sapiens, UniProt P05106+P08514)
# Sequence (P05106 27-788 limits assumed): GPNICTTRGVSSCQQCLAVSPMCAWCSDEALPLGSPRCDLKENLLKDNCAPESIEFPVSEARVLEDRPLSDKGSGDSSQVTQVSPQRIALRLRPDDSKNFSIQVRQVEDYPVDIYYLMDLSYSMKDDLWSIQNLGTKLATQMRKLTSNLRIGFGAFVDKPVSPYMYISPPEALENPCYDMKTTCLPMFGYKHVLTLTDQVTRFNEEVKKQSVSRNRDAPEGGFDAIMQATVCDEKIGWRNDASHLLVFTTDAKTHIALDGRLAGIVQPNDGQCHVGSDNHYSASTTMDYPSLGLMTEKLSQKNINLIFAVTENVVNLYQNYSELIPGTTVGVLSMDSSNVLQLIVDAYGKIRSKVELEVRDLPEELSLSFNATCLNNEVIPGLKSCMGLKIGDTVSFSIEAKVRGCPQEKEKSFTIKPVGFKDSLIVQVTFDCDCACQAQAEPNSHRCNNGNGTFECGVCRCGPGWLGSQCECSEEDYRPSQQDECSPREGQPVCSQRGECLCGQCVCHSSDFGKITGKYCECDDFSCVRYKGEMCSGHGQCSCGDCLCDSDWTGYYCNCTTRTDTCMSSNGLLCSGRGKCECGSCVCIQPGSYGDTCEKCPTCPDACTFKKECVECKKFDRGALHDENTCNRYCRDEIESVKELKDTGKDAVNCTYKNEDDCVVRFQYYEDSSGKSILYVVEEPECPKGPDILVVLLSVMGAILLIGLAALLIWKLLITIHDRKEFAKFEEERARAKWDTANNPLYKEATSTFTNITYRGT
# Sequence (P08514 32-887 limits assumed): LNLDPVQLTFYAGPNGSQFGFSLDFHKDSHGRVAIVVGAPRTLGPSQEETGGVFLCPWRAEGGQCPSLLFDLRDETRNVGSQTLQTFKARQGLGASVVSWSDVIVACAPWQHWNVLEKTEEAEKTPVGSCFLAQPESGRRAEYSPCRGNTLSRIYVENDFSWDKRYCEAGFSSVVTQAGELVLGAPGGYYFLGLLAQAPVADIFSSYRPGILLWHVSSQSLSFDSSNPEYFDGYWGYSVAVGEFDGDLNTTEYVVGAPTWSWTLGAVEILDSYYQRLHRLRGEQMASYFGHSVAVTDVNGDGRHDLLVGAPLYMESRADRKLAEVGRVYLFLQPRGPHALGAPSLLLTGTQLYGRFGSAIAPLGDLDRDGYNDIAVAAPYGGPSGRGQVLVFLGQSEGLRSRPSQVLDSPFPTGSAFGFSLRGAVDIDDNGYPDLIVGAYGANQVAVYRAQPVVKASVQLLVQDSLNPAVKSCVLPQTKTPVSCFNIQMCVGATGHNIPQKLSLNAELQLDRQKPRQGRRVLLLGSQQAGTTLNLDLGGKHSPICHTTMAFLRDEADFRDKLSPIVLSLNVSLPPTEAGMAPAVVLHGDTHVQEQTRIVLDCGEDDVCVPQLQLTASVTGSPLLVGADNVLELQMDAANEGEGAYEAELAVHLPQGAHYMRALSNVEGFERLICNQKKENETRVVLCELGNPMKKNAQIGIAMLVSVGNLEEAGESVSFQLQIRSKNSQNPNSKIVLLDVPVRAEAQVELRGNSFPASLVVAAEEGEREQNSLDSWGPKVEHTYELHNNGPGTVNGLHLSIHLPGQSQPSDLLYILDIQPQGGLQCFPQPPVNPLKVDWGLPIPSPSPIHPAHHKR
# Sequence (P08514 891-1039 limits assumed): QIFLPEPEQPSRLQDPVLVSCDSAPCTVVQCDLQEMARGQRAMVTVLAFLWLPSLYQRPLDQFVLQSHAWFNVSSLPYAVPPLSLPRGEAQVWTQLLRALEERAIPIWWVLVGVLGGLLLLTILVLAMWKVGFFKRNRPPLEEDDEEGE
# measurement description: Inhibition of human Biotinylated Fg binding to immobilized Alpha II beta-3
# Format: protein-complex assay
measure name: IC50

O=C(O)CC(CCC1CCN(C(=O)Cc2ccc3c(n2)NCCC3)CC1)c1ccc2c(c1)OCO2 (stereo not drawn) :: > 10 µM
O=C(O)CC(CC1CCN(C(=O)CCc2ccc3c(n2)NCCC3)CC1)c1ccc2ccccc2c1 (stereo not drawn) :: > 10 µM
O=C(O)CC(CC1CCN(C(=O)CCc2ccc3c(n2)NCCC3)CC1)c1cccc(F)c1 (stereo not drawn) :: > 10 µM
